test system: α2-GABAA receptor; assay: Ligand-binding assay, competitive with radiolabeled flumazenil, spinal cord membranes; conditions: Affinity for α2-GABAA receptor; 10^-5M test compound; rat spinal cord membranes; radiolabeled flumazenil 1 nM
measured.parameter: % Inhibition 10^−5M (%)

In [3]: df
Out[3]:
                                   compound  units_text  recorded_measurement
0  Cc1ccc(-c2nc3ccc(C)cn3c2CN(C)C(=O)c2ccnc(Cl)c2)cc1 [Example 34]           %                  85.0
1  Cc1ccc(-c2nc3ccc(C)cn3c2CNC(=O)c2ccc(C)n2C)cc1 [Example 6]           %                  64.4
2  Cc1ccc(-c2nc3ccc(C)cn3c2CN(C)C(=O)c2cccs2)cc1 [Example 29]           %                  90.2
3  Cc1ccc(-c2nc3ccc(C)cn3c2CNC(=O)c2ccc3ccccc3n2)cc1 [Example 19]           %                  47.6
4  Cc1ccc(-c2nc3ccc(C)cn3c2CNC(=O)c2ccc(N(C)C)cc2)cc1 [Example 3]           %                  17.4
